The following compounds are shown together with reported inhibition at 100 µM values.
test system: glioma cell line SH-SY5Y; test: CCK-8 cell proliferation inhibition test, SH-SY5Y; format: cell-based; settings: Homo sapiens, 100 μM, 48 h, read-out: IC % for 100 μM
readout_type: inhibition at 100 µM (%)

In [3]: df
Out[3]:
                                   compound  readout_units  value_observed
0  COc1ccc(Cc2nc(C3CNCCO3)n(-c3ccccc3)n2)cc1 (centres unmarked) [Compound 4]              %            57.8
1  COc1ccc(Cc2nc(C3CCCCO3)n(C3CCN(C)CC3)n2)cc1 (centres unmarked) [Compound 10]              %            43.3
2  COc1ccc(Cc2nc(C3CNCCO3)n(C)n2)cc1 (centres unmarked) [Compound 8]              %            59.5
3  COc1ccc(Cc2nc(C3CNCCO3)n(Cc3ccc(OC)cc3)n2)cc1 (centres unmarked) [Compound 2]              %            78.3
4  CN1CCC(n2nc(-c3ccccc3)nc2C2CNCCO2)CC1 (centres unmarked) [Compound 15]              %            52.3

---

target: lysine methyltransferase SET8 (Homo sapiens, UniProt Q9NQR1); construct: purchased Cayman Company; assay: SET8 methyltransferase inhibitor screening assay kit (Cayman), fluorescence; format: biochemical; conditions: incubation at 37° C. for 10 min; inhibitor concentration not given
Sequence (Q9NQR1 whole entry): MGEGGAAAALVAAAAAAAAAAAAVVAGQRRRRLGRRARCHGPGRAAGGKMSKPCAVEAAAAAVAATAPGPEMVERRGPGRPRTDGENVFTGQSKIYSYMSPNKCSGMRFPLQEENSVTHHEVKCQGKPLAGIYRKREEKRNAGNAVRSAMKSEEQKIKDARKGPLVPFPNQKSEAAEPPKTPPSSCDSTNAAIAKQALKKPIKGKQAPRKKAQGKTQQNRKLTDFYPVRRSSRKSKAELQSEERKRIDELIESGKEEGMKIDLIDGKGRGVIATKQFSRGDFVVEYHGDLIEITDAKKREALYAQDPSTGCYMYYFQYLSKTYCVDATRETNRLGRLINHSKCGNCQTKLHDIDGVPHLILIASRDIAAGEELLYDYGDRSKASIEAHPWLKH
Decide by Inhibition Rate (%): equal to or exceeding 50% means Criterion met, less means Criterion not met.

>>> print(df.to_string())
                                   compound                                    system              group
0  COc1ccc(Cc2nc(C3CNCCO3)n(C3CCN(C)CC3)n2)cc1 (centres unmarked)  lysine methyltransferase SET8 (Homo sapiens, UniProt Q9NQR1)      Criterion met
1  COc1ccc(Cc2nc(C3CCCCC3)n(Cc3ccc(OC)cc3)n2)cc1  lysine methyltransferase SET8 (Homo sapiens, UniProt Q9NQR1)  Criterion not met
2  Cc1ccc(-c2nc(C3CNCCO3)n(C3CCN(C)CC3)n2)cc1 (centres unmarked)  lysine methyltransferase SET8 (Homo sapiens, UniProt Q9NQR1)      Criterion met
3  COc1ccc(Cc2nc(C3CNCCO3)n(Cc3ccc(OC)cc3)n2)cc1 (centres unmarked)  lysine methyltransferase SET8 (Homo sapiens, UniProt Q9NQR1)      Criterion met
4  CN1CCC(n2nc(-c3ccccc3)nc2C2CNCCO2)CC1 (centres unmarked)  lysine methyltransferase SET8 (Homo sapiens, UniProt Q9NQR1)      Criterion met

---

The following molecules are shown together with reported inhibition at 100 µM values.
tested on: glioma cell line SH-SY5Y; assay: CCK-8 cell proliferation inhibition test, SH-SY5Y; type: cell-based; conditions: Homo sapiens, 100 μM, 48 h, read-out: IC % for 100 μM
readout_type: inhibition at 100 µM (%)

>>> df
                                    molecule  value_observed
 0  COc1ccc(Cc2nc(C3CCCCC3)n(C3CCN(C)CC3)n2)cc1 [Compound 18]            41.9
 1  COc1ccc(Cn2nc(-c3ccccc3)nc2C2CNCCO2)cc1 (centres unmarked) [Compound 13]            37.8
 2  Cc1cccc(-c2nc(C3CNCCO3)n(C3CCN(C)CC3)n2)c1 (centres unmarked) [Compound 17]            53.7
 3  COc1ccc(Cc2nc(CN)n(C3CCN(C)CC3)n2)cc1 [Compound 11]            39.9
 4  COc1ccc(Cc2nc(C3CNCCO3)n(-c3cccc(C)c3)n2)cc1 (centres unmarked) [Compound 5]            57.1
 5  COc1ccc(Cc2nc(C3CNCCO3)n(C3CCN(C)CC3)n2)cc1 (centres unmarked) [Compound 1]            52.5
 6  COc1ccc(Cc2nc(C3CNCCO3)n(C3CCCCC3)n2)cc1 (centres unmarked) [Compound 3]            76.5
 7  COc1ccc(Cc2nc(C)n(C3CCN(C)CC3)n2)cc1 [Compound 20]            84.7
 8  COc1ccc(Cc2nc(C3CCCCO3)n(Cc3ccc(OC)cc3)n2)cc1 (centres unmarked) [Compound 12]            60.1
 9  COc1ccc(Cc2nc(C3CNCCO3)n(-c3ccccn3)n2)cc1 (centres unmarked) [Compound 6]            58.6
10  COc1ccc(Cc2nc(C3CN(Cc4ccccc4)CCO3)n(C3CCN(C)CC3)n2)cc1 (centres unmarked) [Compound 9]            58.5
